The measurements presented in this section are drawn from paper PMC7072103.

Test: Pharmacokinetic study in rats after oral administration of RPM extract (UPLC-MS/MS of plasma)
Assay type: in vivo, Sprague-Dawley rats
Settings: male, Sprague-Dawley, rat, in vivo, po, 36 g/kg, AUC0–t
MEASURED METRIC: AUC(0-t) (ng·h/mL)

> print(dat)
                               test.smiles  unit.string  numeric.result
1  O=C1c2cc(O)cc(O)c2C(=O)c2c(O)cc(CO)cc21      ng·h/mL             134

----------
Each entry below lists one item and its recorded half-life value.
Experiment: Pharmacokinetic study in rats after oral administration of RPM extract (UPLC-MS/MS of plasma)
Format: in vivo, Sprague-Dawley rats
Conditions: male, Sprague-Dawley; rat plasma, single oral dose of RPM extract 36 g/kg, n = 6, mean ± SD; read-out: t1/2 (converted)
MEASURED METRIC: half-life (h)

> print(dat)
                                   compound  numeric.result
1  COc1cc(O[C@@H]2O[C@H](CO)[C@@H](O)[C@H](O)[C@H]2O)c2c(O)c(C(C)=O)c(C)cc2c1 [TG, torachrysone-8-O-glucoside]               2
2  OC[C@H]1O[C@@H](Oc2c(O)cc(O)cc2/C=C/c2ccc(O)cc2)[C@H](O)[C@@H](O)[C@@H]1O [TSG]            5.98
3  Cc1cc(O)c2c(c1)C(=O)c1cccc(O)c1C2=O [Chrysophanol, chrysophanol]            3.18
4  O=C(O)c1cc(O)c2c(c1)C(=O)c1cccc(O)c1C2=O [Rhein, rhein]            1.18

----------
Reported values of Cmax for individual entries
Assay: Pharmacokinetic study in rats after oral administration of RPM extract (UPLC-MS/MS of plasma)
Type: in vivo, Sprague-Dawley rats
Conditions: male, Sprague-Dawley; rat plasma, single oral dose of RPM extract 36 g/kg, n = 6, mean ± SD; read-out: Cmax
MEASURED METRIC: Cmax

> print(dat)
                                   molecule      result
1  Cc1cc(O)c2c(c1)C(=O)c1cccc(O)c1C2=O [Chrysophanol, chrysophanol]   1.9 ng/mL
2  OC[C@H]1O[C@@H](Oc2c(O)cc(O)cc2/C=C/c2ccc(O)cc2)[C@H](O)[C@@H](O)[C@@H]1O [TSG]  1740 ng/mL
3  O=C(O)c1cc(O)c2c(c1)C(=O)c1cccc(O)c1C2=O [Rhein, rhein]  1.06 ng/mL
4  COc1cc(O[C@@H]2O[C@H](CO)[C@@H](O)[C@H](O)[C@H]2O)c2c(O)c(C(C)=O)c(C)cc2c1 [TG, torachrysone-8-O-glucoside]  18.7 ng/mL

----------
Test: Pharmacokinetic study in rats after oral administration of RPM extract (UPLC-MS/MS of plasma)
Type: in vivo, Sprague-Dawley rats
Conditions: male, Sprague-Dawley, in vivo; rat plasma, single oral dose of RPM extract 36 g/kg, n = 6, mean ± SD; read-out: Tmax
MEASURED METRIC: Tmax (min)

> print(dat)
                              test.smiles  measured.metric  unit.string  numeric.result
1    O=C1c2cccc(O)c2C(=O)c2c(O)cc(CO)cc21             Tmax          min            13.2
2  Cc1cc(O)c2c(c1)C(=O)c1cc(O)cc(O)c1C2=O             Tmax          min            11.4
